Reference source: ChEMBL document CHEMBL4689842

Entries and their Population Hoechst High Intensity Objects (%) values follow.
# System: U2OS
# ASSAY_REMARKS: Multiplex assay against U2OS
# Assay type: toxicity, cell-based
# CONDITION_SUMMARY: human, 12 h, 1 µM, compound concentration 1 uM, replicate 2
The answer is to be given in %; state only the numeric part.

Here are 5 compounds together with their reported answers.
| COMPOUND | EXPERIMENTAL_TARGET | UNIT_TEXT | RESULT_VALUE |
| --- | --- | --- | --- |
| CNC(=O)c1ccc(Nc2nc(OC3CCCC3)c3c(-c4ccc5nc(C)oc5c4)c[nH]c3n2)c(OC)c1 | U2OS | % | 6 |
| CNc1cc(Oc2cc(C(=O)Nc3cc(N4CCN(C)CC4)cc(C(F)(F)F)c3)ccc2C)ncn1 | U2OS | % | 2 |
| CCc1cccc(CC)c1NC(=O)c1nn(C)c2c1CCc1cnc(Nc3ccc(N4CCN(C)CC4)cc3OC)nc1-2 | U2OS | % | 14 |
| Cn1nc(C(F)(F)F)cc1-c1cnc(N2CCc3cc(S(=O)(=O)Nc4c(F)cc(Cl)cc4F)cc(N4CCCC4=O)c32)nc1 [TP-020] | U2OS | % | 15 |
| COc1cc(N2CCN(C)CC2)ccc1Nc1ncc2c(n1)N(C)c1ccccc1C(=O)N2C | U2OS | % | 4 |

// recorded Population Hoechst High Intensity Objects (%) for O=C1NC(=O)C(c2cnc3ccccn23)=C1c1cn2c3c(cc(F)cc13)CN(C(=O)N1CCCCC1)CC2 [LY-2090314] : 12

// recorded Population Hoechst High Intensity Objects (%) for CN1C2CCC1CC(OC(c1ccc(F)cc1)c1ccc(F)cc1)C2.Cl (configuration not stated) : 2

// recorded Population Hoechst High Intensity Objects (%) for "O=C1N/C(=N/c2ccccc2F)S/C1=C\c1ccc(C(=O)O)cc1" : 8

// recorded Population Hoechst High Intensity Objects (%) for "O=C(Nc1ccc(Cl)cc1)Nc1cccc(-c2cccc(N3CCCC3)n2)c1" : 7

// recorded Population Hoechst High Intensity Objects (%) for "Cc1cc(C)c(S(=O)(=O)N(Cc2ccc(-c3cccc(S(C)(=O)=O)c3)cc2)Cc2ccc(C(F)(F)F)o2)c(C)c1" : 6

// recorded Population Hoechst High Intensity Objects (%) for "O=C(Nc1cccnn1)N1CCC(=Cc2cccc(Oc3ccc(C(F)(F)F)cn3)c2)CC1" : 16

// recorded Population Hoechst High Intensity Objects (%) for "CCNc1cc(N[C@H]2CC[C@H](O)CC2)nc(Nc2ccc3c(ccn3Cc3ccccc3)c2)n1" : 11

====

# System: U2OS
# ASSAY_REMARKS: Multiplex assay against U2OS
# Type: toxicity, cell-based
# CONDITION_SUMMARY: human, 12 h, 1 µM, compound concentration 1 uM, replicate 1
OBSERVATION_TYPE: Population Membrane Permeable-Phenotype (%)
The answer is to be given in %; state only the numeric part.

| MOLECULE | UNIT_TEXT | RESULT_VALUE |
| --- | --- | --- |
| O=C1NC(=O)C(c2cnc3ccccn23)=C1c1cn2c3c(cc(F)cc13)CN(C(=O)N1CCCCC1)CC2 | % | 5 |
| CCOC(=O)c1c(C)[nH]c2ccc3c(c12)CN1CCc2cc(OC)ccc2C1O3 (stereo not drawn) | % | 6 |
| CNc1cc(Oc2cc(C(=O)Nc3cc(N4CCN(C)CC4)cc(C(F)(F)F)c3)ccc2C)ncn1 | % | 4 |
| O=C(Cc1ccc(-c2ccc(OCCN3CCOCC3)cc2)cn1)NCc1ccccc1 | % | 8 |
| O=C(Nc1ccc(-n2nc(-c3cccnc3)cc2C(F)(F)F)cn1)c1ccc(-c2ccccc2)c(F)c1 | % | 6 |
| CN1CCC(=C2c3ccccc3CC(=O)c3sccc32)CC1.O=C(O)/C=C/C(=O)O [KETOTIFEN FUMARATE] | % | 15 |
| Cc1cn(-c2cc(NC(=O)c3ccc(C)c(Nc4nccc(-c5cccnc5)n4)c3)cc(C(F)(F)F)c2)cn1 | % | 10 |

// next item, Population Membrane Permeable-Phenotype (%) requested
// recorded Population Membrane Permeable-Phenotype (%) for "COC(=N)c1nc2ccc3ncnc(Nc4ccc(OC)cc4F)c3c2s1" : 17

====

# Tested on: U2OS
# ASSAY_REMARKS: Multiplex assay against U2OS
# Type: toxicity, cell-based
# CONDITION_SUMMARY: human, 24 h, 10 µM, compound concentration 10 uM, replicate 2
Entries and their Population Membrane Permeable-Phenotype (%) values follow.
The answer is to be given in %; state only the numeric part.

Here are 6 compounds together with their reported answers.
| COMPOUND | UNIT_TEXT | RESULT_VALUE |
| --- | --- | --- |
| NC(=O)c1cccc(-c2cc(Nc3ccc(OC(F)(F)F)cc3)ncn2)c1 | % | 8 |
| Cl.Oc1ccc2c3c1O[C@H]1c4[nH]c5c(c4C[C@@]4(O)[C@@H](C2)N(CC2CC2)CC[C@]314)C[C@@]1(O)[C@H]2Cc3ccc(O)c4c3[C@@]1(CCN2CC1CC1)[C@H]5O4 | % | 48 |
| Cc1ccc(C(=O)Nc2cccc(C(F)(F)F)c2)cc1Nc1nc(-c2cccnc2)nc2c1cnn2C | % | 100 |
| CCn1c(=O)c(-c2ccc(-c3cncs3)cc2Cl)cc2cnc(Nc3ccc(N4CCN(C)CC4)cc3)nc21 | % | 7 |
| CCCn1c(=O)c2[nH]c(-c3cnn(Cc4cccc(C(F)(F)F)c4)c3)nc2n(CC)c1=O | % | 5 |
| Cc1cn(-c2cc(NC(=O)c3ccc(C)c(Nc4nccc(-c5cccnc5)n4)c3)cc(C(F)(F)F)c2)cn1 | % | 1 |

// recorded Population Membrane Permeable-Phenotype (%) for "CNC(=O)c1ccc(Nc2nc(OC3CCCC3)c3c(-c4ccc5nc(C)oc5c4)c[nH]c3n2)c(OC)c1" : 30

// recorded Population Membrane Permeable-Phenotype (%) for "CNc1cc(Oc2cc(C(=O)Nc3cc(N4CCN(C)CC4)cc(C(F)(F)F)c3)ccc2C)ncn1" : 80

// recorded Population Membrane Permeable-Phenotype (%) for "S=C(NCCCc1c[nH]cn1)NCCCN(Cc1ccc(Cl)c(Cl)c1)c1ccc(Br)cn1" : 94

// recorded Population Membrane Permeable-Phenotype (%) for CN1C2CCC1CC(OC(c1ccc(F)cc1)c1ccc(F)cc1)C2.Cl (stereo unspecified) : 6

// recorded Population Membrane Permeable-Phenotype (%) for "Cn1nc(C(F)(F)F)cc1-c1cnc(N2CCc3cc(S(=O)(=O)Nc4c(F)cc(Cl)cc4F)cc(N4CCCC4=O)c32)nc1" : 9

// recorded Population Membrane Permeable-Phenotype (%) for "C=CCn1c(=O)c2cnc(Nc3ccc(N4CCN(C)CC4)cc3)nc2n1-c1cccc(C(C)(C)O)n1" : 75

// recorded Population Membrane Permeable-Phenotype (%) for "C=C1/C(=C\C=C2/CCC[C@]3(C)[C@@H]([C@H](C)/C=C/[C@H](C)C(C)C)CC[C@@H]23)C[C@@H](O)C[C@@H]1O" : 1

// recorded Population Membrane Permeable-Phenotype (%) for "O=C1NC(=O)C(c2cnc3ccccn23)=C1c1cn2c3c(cc(F)cc13)CN(C(=O)N1CCCCC1)CC2" : 37

// recorded Population Membrane Permeable-Phenotype (%) for "CN1CCN(C(=O)C(C)(C)c2ccc(C(=O)Nc3cn4cc(-c5cc(C(C)(C)C)cc(C(C)(C)C)c5)ccc4n3)cc2)CC1" : 48

// recorded Population Membrane Permeable-Phenotype (%) for "Cl.O=c1c2cccn2c2ccccc2n1CCCN1CCC(c2ccc(Cl)cc2)CC1" : 72

====

Entries and their Growth Rate values follow.
# Test system: HEK-293T
# ASSAY_REMARKS: Incucyte cell viability with HEK293T; further: filed as whole numbers so only -1 and 0 and 1 occur
# Format: toxicity, cell-based
# CONDITION_SUMMARY: human, 6 h, 10 µM, compound concentration 10 uM, replicate number 1, timepoint 6 hours
Note: the reply should be a number with no unit written.

Here are 5 molecules together with their reported answers.
| MOLECULE | RESULT_VALUE |
| --- | --- |
| CCn1cc(-c2ccnc3[nH]c(-c4cccc(CN(C)C)c4)cc23)c(-c2ccc(NC(=O)N(C)C)cc2)n1 [GSK-1070916] | 0 |
| CC(C)(C(=O)O)c1ccc(C(O)CCCN2CCC(C(O)(c3ccccc3)c3ccccc3)CC2)cc1.Cl (stereo unspecified) [FEXOFENADINE HYDROCHLORIDE] | 1 |
| Cl.Oc1ccc2c3c1O[C@H]1c4[nH]c5c(c4C[C@@]4(O)[C@@H](C2)N(CC2CC2)CC[C@]314)C[C@@]1(O)[C@H]2Cc3ccc(O)c4c3[C@@]1(CCN2CC1CC1)[C@H]5O4 | 1 |
| CCC(=N\O)/C(C)=C/c1ccc(F)c(C)c1 [A-226] | 0 |
| O=C(Nc1cccnn1)N1CCC(=Cc2cccc(Oc3ccc(C(F)(F)F)cn3)c2)CC1 | 0 |

Noted Growth Rate for "CCCS(=O)(=O)c1nc(NC2CC2)cc(-c2ccc3c(ccn3C3CC(C)(C)NC(C)(C)C3)c2)n1" , tested on HEK-293T: 0

Noted Growth Rate for O=C(NS(=O)(=O)c1ccc(NCC2CCOCC2)c([N+](=O)[O-])c1)c1ccc(N2CCN(Cc3ccc(C(F)(F)F)cc3-c3ccc(Cl)cc3)CC2)cc1Oc1cnc2[nH]ccc2c1 [A-1210227] , tested on HEK-293T: 0

Noted Growth Rate for CNC[C@H](O)c1cccc(O)c1 [PHENYLEPHRINE] , tested on HEK-293T: 0
